B1: ACBD3 (parent)
chain: YVASHKIEKEEQEKKRKEEEERRR

# Variants of: B1
# measurement_protocol: protein stability index of a GFP-peptide fusion (GPS, HEK-293T) (PSI 1-6); higher = more stable;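 also: lentivirally expressed fusions sorted by FACS into six bins by GFP to DsRed ratio, PSI derived from sequencing read proportions per bin multiplied by bin number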
# settings: c terminus: a fixed tail appended
Item-by-item account of protein stability index

>  <mut>
S4M

>  <protein stability index>
2.1

$$$$
>  <mut>
E13N

>  <protein stability index>
2.52

$$$$
>  <mut>
A3G

>  <protein stability index>
2.33

$$$$
>  <mut>
R16M

>  <protein stability index>
3.23

$$$$
